# System: Septoria tritici
# test description: Test A: wheat leaf blotch, preventive spray on wheat seedlings
# Assay type: in vivo
# condition details: 50 ppm, 100 = 100% disease control, 0 = no control relative to controls
metric: Test A disease control rating (wheat leaf blotch) (%)
One number for each entry, in %.

Please review the following examples before continuing.
>>> df
                                   compound  test_value
0  Cc1nn(C)c(Nc2c(Cl)cc(Cl)cc2[N+](=O)[O-])c1-c1ccc(C#N)cc1Cl [Compound 116]          99
1  Cc1nn(C)c(Nc2ccc(F)cc2[N+](=O)[O-])c1-c1ccc(F)cc1Br [Compound 20]         100
2  CCn1nc(C)c(-c2ccc(F)cc2Cl)c1Nc1c(F)cccc1[N+](=O)[O-] [Compound 71]         100

QUERY: Supply Test A disease control rating (wheat leaf blotch) measured with Septoria tritici for COc1ccc(-c2c(C)nn(C)c2Nc2c(F)cc(Br)cc2[N+](=O)[O-])c(Cl)c1 [Compound 182] .
RESULT: 100
